test system: low-resistant to hypoxia animals; assay: Acute hypobaric anoxia in combination with hypercapnia (lifting to 11,500 m): lifetime, loss of pose time, restitution time, stability factor; type: in vivo; details: 100 mg/kg intravenously 15 minutes prior to the experiment
Marks after values point to notes of the source that are not given here.
Overview of reported Loss of Pose Time across a group of compounds:
observation type: Loss of Pose Time

INSERT INTO measurements (compound, system_tested, value_reported) VALUES
  ('O=C([O-])CCCO.[Li+] [Lithium oxybutyrate]', 'low-resistant to hypoxia animals', '436+90** sec'),
  ('O=C(O)CCC(=O)O [succinic acid]', 'low-resistant to hypoxia animals', '121 ± 34 s'),
  ('NC(=S)N=C(N)N [hutimine]', 'low-resistant to hypoxia animals', '186 ± 32 s'),
  ('CCc1nc(C)ccc1O.O=C(O)CCC(=O)O [3-oxy-3-methyl-6-oxypyridine succinate]', 'low-resistant to hypoxia animals', '156 ± 29 s'),
  ('OC[C@H]1O[C@@H](n2cnc3c(O)ncnc32)[C@H](O)[C@@H]1O [inosine]', 'low-resistant to hypoxia animals', '186 ± 39 s');
